- system_under_test: recombinant homotrimeric HA, A/Indonesia/5/05 H5N1 (Influenza A virus A/Indonesia/5/05 (H5N1))
- assay_notes: trimeric HA microarray, transfection set 4
- experimental_conditions: remark: other sources report otherwise
readout_label: Trimeric HA Binding RLU

Worked set:
TCN-523 (5248_A17) (antibody, V domains shown) VH: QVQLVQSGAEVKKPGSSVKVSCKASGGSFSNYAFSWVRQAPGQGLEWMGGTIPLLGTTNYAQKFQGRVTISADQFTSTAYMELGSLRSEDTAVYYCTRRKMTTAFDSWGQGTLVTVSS VL: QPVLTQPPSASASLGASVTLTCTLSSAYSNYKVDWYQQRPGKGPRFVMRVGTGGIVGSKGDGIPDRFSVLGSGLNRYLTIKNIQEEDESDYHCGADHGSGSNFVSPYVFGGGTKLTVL; 24500 RLU
TCN-535 (5246_P19) (antibody, V domains shown) VH: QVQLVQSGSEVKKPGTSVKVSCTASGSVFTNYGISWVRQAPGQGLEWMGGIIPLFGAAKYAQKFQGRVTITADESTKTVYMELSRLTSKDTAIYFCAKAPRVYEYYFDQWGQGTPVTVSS VL: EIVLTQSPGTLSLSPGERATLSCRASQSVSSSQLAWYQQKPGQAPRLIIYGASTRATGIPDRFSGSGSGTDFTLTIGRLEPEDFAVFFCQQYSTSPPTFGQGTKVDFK; 18200 RLU
TCN-534 (5249_B02) (antibody, V domains shown) VH: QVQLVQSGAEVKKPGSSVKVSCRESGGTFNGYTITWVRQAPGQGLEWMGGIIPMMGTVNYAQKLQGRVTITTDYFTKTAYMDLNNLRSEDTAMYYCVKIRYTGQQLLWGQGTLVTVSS VL: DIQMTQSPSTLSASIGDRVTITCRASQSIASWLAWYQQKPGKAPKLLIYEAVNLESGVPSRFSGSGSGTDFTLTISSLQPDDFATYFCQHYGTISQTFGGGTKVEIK; 948 RLU

Now look at this one.
Which measured Trimeric HA Binding RLU value corresponds to TCN-504 (3251_K17) (antibody, V domains shown) VH: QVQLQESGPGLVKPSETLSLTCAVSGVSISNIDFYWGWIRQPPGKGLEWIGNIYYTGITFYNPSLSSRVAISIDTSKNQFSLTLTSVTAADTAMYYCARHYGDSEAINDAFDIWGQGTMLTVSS VL: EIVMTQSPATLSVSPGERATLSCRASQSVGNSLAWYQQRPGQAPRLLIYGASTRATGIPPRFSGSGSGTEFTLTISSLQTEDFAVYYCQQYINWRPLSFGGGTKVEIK ?
18200 RLU

src = patent US20120207760A1
